- assayed_target: MKNK1 (human) (UniProt Q9BUB5)
- Sequence (Q9BUB5 whole entry, looked up): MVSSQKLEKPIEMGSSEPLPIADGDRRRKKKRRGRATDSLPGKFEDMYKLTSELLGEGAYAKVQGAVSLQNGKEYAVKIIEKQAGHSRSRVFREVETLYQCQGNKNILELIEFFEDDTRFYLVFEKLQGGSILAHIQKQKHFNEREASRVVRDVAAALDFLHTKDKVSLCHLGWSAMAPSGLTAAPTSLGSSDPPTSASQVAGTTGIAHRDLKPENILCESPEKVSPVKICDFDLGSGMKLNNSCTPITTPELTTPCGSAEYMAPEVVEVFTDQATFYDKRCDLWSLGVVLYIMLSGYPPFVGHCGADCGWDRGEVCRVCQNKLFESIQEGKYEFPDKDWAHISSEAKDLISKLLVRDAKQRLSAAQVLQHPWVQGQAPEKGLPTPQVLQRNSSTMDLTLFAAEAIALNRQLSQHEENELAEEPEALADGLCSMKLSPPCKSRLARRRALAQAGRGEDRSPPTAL
- protocol_notes: radiometric filter-binding kinase assay
- measurement_parameters: compound 0.1 µM
parameter: residual activity (%)
Report only the number, with the unit % understood.

Task: I have this molecule here, "COc1cc(O)c2c(c1)/C=C/C[C@H](O)[C@H](O)C(=O)/C=C\C[C@H](C)OC2=O" , and I need its recorded residual activity.
Output: 55

Task: Need residual activity, item "CN(C)C/C=C/C(=O)Nc1cccc(C(=O)Nc2ccc(Nc3nccc(-c4cccnc4)n3)cc2)c1"
Output: 84

Task: If you can, please state the reported residual activity value of "O=C(NCCCNc1nc(Nc2cccc(CN3CCOCC3)c2)ncc1C1CC1)C1CCC1" .
Output: 89

Task: What residual activity value was documented for this molecule, CNC(=O)C1[C@H]2O[C@@](C)([C@@H]1N)n1c3ccccc3c3c4c(c5c6ccccc6n2c5c31)C(=O)NC4 (stereo not given in full) ?
Output: 16

Task: Consider the molecule shown here: "NC1(c2ccc(-c3nc4ccn5c(=O)[nH]nc5c4cc3-c3ccccc3)cc2)CCC1" What is its recorded residual activity?
Output: 105

Task: Given "CCn1c(-c2nonc2N)nc2cncc(CNC3CCNCC3)c21" , state its recorded residual activity.
Output: 91

Task: Endpoint output: residual activity of "c1ccc2c(-c3cnn4cc(-c5ccc(N6CCNCC6)cc5)cnc34)ccnc2c1" . Value?
Output: 82

Task: So what does the record say about residual activity for "C=CC(=O)N1CCC[C@@H](n2nc(-c3ccc(Oc4ccccc4)cc3)c3c(N)ncnc32)C1" ?
Output: 91

Task: State the recorded residual activity for this entry: "COc1ccc(-n2ncc3cnc(Nc4cc(OC)c(OC)c(OCCCN5CCN(C)CC5)c4)nc32)cc1"
Output: 59

Task: I would be grateful if you could share the reported residual activity for "Cn1c(=O)c2c(ncn2C)n(C)c1=O" .
Output: 110

====

- assayed_target: ZAP70 (human)
- protocol_notes: radiometric filter-binding kinase assay
- measurement_parameters: compound 1.0 µM
// values below are reported residual activity
Write it as a number; the unit % goes unstated.

The cases that follow already have their residual activity on record.
compound	measured_result
NC(=O)c1cc(-c2ccnc(NC3CCCCC3)c2)nc(N2CCNCC2)c1	114
CN(C)C/C=C/C(=O)Nc1cccc(C(=O)Nc2ccc(Nc3nccc(-c4cccnc4)n3)cc2)c1	123
c1ccc2c(-c3cnn4cc(-c5ccc(N6CCNCC6)cc5)cnc34)ccnc2c1	69
CCNc1nc(Nc2cc(F)c(C(=O)N3CCOCC3)cc2OC)ncc1C(F)(F)F	102
Cc1ccc(-c2ccc3c(ccc4sc5c(c43)NC[C@@H](C)NC5=O)n2)cn1	100

Task: Requested read-out: residual activity. Entry: "COc1ccc(-n2ncc3cnc(Nc4cc(OC)c(OC)c(OCCCN5CCN(C)CC5)c4)nc32)cc1"
Output: 22

Task: May I ask what residual activity has been recorded for "CCCCCc1ccc(/C=C/[C@H](O)[C@@H](CO)NC)cc1" ?
Output: 106

Task: Need residual activity of "Cc1ccc(=O)n(-c2ccccc2)c1" , thanks.
Output: 110

Task: // query residual activity value for entry "NC(=O)c1c(NC(=O)C2CC2)sc2c1CCCC2"
Output: 94

Task: Which residual activity reading was recorded for the compound O=C(NOCC(O)CO)c1ccc(F)c(F)c1Nc1ccc(I)cc1Cl (stereo not given) ?
Output: 77

====

- assayed_target: CSNK2A1 (human) (UniProt P68400)
- Sequence (P68400 whole entry, looked up): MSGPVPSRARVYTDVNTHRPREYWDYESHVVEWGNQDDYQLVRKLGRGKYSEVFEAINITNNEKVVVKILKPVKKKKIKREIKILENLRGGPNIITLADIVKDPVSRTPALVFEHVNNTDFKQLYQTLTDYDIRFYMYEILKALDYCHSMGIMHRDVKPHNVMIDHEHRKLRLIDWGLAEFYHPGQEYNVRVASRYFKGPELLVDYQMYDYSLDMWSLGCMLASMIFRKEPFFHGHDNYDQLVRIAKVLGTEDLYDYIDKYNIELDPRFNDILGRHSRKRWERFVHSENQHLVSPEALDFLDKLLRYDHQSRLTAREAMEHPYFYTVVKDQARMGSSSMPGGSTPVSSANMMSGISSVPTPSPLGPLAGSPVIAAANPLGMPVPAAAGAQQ
- protocol_notes: radiometric filter-binding kinase assay
- measurement_parameters: compound 10.0 µM
parameter: residual activity (%)
# value in %; strip the unit string

Examples from the recorded data:
compound	units_of_measure	residual activity
N#Cc1c(C2CCNCC2)cc(-c2c(O)cccc2OCC2CC2)nc1N	%	93
Nc1cccc2c1CN(C1CCC(=O)NC1=O)C2=O (stereo not given)	%	93
NC(=O)c1cc(-c2ccnc(NC3CCCCC3)c2)nc(N2CCNCC2)c1	%	65

Task: Name the recorded residual activity for "Cc1cc(SCc2sc(-c3ccc(C(F)(F)F)cc3)nc2C)ccc1OCC(=O)O" .
Output: 79

Task: What does the record list as residual activity for "CCOC(=O)c1ccc(N2NC(=O)/C(=C/c3ccc([N+](=O)[O-])o3)C2=O)cc1" ?
Output: 106

====

Recorded residual activity by entry
- assayed_target: INSR (human) (UniProt P06213)
- Sequence (P06213 whole entry, looked up): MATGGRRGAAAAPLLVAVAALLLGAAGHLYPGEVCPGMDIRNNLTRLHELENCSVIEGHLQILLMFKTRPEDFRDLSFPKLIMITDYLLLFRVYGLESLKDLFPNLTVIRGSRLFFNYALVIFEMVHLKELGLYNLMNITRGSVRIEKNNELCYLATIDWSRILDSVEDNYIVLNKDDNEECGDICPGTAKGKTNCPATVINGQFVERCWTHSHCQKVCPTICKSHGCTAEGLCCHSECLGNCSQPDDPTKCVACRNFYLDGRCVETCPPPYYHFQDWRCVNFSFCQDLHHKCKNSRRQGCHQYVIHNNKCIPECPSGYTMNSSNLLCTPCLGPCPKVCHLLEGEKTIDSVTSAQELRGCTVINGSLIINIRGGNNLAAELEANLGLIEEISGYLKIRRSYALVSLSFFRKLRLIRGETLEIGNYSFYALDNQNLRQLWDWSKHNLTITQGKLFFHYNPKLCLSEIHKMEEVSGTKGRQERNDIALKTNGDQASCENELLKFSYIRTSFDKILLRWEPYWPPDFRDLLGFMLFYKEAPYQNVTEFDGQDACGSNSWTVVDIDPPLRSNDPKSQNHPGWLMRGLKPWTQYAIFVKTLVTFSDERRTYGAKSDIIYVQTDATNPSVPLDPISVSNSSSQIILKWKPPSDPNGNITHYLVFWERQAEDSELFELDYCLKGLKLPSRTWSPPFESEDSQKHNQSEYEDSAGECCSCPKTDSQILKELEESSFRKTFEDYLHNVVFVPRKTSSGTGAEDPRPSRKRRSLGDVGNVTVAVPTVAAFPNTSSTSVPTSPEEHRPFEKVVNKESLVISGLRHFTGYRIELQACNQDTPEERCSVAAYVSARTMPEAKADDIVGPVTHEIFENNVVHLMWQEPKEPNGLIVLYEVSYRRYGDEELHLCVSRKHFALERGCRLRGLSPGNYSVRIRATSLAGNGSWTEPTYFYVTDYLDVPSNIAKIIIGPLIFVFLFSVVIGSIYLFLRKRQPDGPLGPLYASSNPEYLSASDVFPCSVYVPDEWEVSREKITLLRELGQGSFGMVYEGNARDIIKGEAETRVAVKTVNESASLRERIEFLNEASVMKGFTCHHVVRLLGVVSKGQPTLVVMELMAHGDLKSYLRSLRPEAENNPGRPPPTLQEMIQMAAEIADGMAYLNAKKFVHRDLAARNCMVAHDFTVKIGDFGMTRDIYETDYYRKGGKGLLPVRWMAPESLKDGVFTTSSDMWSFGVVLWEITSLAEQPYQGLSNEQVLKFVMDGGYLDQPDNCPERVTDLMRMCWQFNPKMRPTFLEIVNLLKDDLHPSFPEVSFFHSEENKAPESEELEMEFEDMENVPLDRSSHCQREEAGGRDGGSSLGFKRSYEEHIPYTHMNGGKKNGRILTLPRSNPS
- protocol_notes: radiometric filter-binding kinase assay
- measurement_parameters: compound 0.1 µM
Numbers only; they are read as %.

Take a look at these entries with their results.
compound	measured_result
Cc1cc(NC(=O)c2cccc(NC(=O)/C=C/CN(C)C)c2)ccc1Nc1nccc(-c2cccnc2)n1	102
COc1ccc(N(C(=O)Nc2c(C)cccc2C)c2cc(Nc3ccc(N4CCN(C)CC4)cc3)ncn2)c(OC)c1	106
O=C(N[C@@H](COc1ccc2[nH]c(=O)[nH]c2c1)c1ccccc1)c1cccn(Cc2ccc(F)c(F)c2)c1=O	99
CCc1cncnc1N1CCN(Cc2nc3cc(C(F)(F)F)ccc3[nH]2)CC1	108
CN1CCN(CCOc2cc(OC3CCOCC3)c3c(Nc4c(Cl)ccc5c4OCO5)ncnc3c2)CC1	90
Cc1ccc(Sc2cnc(Nc3cccc(Br)n3)s2)cc1C(=O)N1CCN(C(=O)CN)CC1	19

Task: Suppose we examine the compound COc1cc(O)c2c(c1)[C@H]1OC1C[C@H](O)[C@H](O)C(=O)/C=C\C[C@H](C)OC2=O (some centres undefined) ; what residual activity value has been reported?
Output: 116

Task: Name the recorded residual activity for "O=C(NCCCNc1nc(Nc2cccc(CN3CCOCC3)c2)ncc1C1CC1)C1CCC1" .
Output: 97

Task: Give the measured residual activity of "Cn1c(=O)c2c(ncn2C)n(C)c1=O" .
Output: 104

Task: For CNC(=O)C1[C@H]2O[C@@](C)([C@@H]1N)n1c3ccccc3c3c4c(c5c6ccccc6n2c5c31)C(=O)NC4 (some centres undefined) , what is its reported residual activity?
Output: 76

Task: GET /values?readout=residual activity&item= "COc1ccc(-n2ncc3cnc(Nc4cc(OC)c(OC)c(OCCCN5CCN(C)CC5)c4)nc32)cc1"
Output: 79

Task: Quick check: residual activity of "O=C(Nc1ccccc1-c1cn2c(CN3CCNCC3)csc2n1)c1cnc2ccccc2n1" ?
Output: 127

====

- assayed_target: EPHB4 (human) (UniProt P54760)
- Sequence (P54760 whole entry, looked up): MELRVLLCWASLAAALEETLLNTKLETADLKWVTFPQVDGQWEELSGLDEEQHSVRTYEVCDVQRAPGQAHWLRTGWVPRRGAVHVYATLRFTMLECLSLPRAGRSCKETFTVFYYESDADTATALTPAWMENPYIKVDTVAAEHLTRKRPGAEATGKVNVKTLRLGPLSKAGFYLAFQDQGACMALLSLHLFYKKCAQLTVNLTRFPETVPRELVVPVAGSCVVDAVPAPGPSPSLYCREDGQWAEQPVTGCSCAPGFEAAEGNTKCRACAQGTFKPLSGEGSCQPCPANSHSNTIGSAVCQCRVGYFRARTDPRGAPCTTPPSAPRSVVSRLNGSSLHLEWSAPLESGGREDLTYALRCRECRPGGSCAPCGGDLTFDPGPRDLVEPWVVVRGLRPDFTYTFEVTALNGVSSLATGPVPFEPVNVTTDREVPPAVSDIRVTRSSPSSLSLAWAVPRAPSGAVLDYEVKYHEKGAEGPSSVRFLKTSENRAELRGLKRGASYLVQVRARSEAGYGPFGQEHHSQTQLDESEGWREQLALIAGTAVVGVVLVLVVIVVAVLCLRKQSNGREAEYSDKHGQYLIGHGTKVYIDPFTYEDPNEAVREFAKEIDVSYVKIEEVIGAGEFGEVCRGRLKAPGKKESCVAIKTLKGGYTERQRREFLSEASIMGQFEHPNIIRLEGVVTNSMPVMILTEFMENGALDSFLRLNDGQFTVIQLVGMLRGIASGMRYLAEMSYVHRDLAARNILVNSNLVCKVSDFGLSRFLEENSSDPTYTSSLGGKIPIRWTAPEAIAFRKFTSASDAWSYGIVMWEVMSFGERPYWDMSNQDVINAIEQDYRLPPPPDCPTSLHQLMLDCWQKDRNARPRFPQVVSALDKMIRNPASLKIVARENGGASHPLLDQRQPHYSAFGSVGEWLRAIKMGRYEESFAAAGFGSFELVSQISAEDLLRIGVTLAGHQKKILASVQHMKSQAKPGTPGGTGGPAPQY
- protocol_notes: radiometric filter-binding kinase assay
- measurement_parameters: compound 1.0 µM
As shown below, each of these molecules has a reported residual activity value.
Field: numeric (%). Do not append units.

Task: Quick one: residual activity of "NC1(c2ccc(-c3nc4ccn5c(=O)[nH]nc5c4cc3-c3ccccc3)cc2)CCC1" ?
Output: 105

====

- assayed_target: CDK2 CCNA2 (human) (UniProt P20248+P24941)
- protocol_notes: radiometric filter-binding kinase assay
- measurement_parameters: compound 1.0 µM
parameter: residual activity (%)
# number only, unit % dropped from output

compound	residual activity (%)
NC(=O)c1cc(-c2ccnc(NC3CCCCC3)c2)nc(N2CCNCC2)c1	30

Task: Please look up its residual activity: "O=C(NCCCNc1nc(Nc2cccc(CN3CCOCC3)c2)ncc1C1CC1)C1CCC1"
Output: 47

Task: Fill in the blank: the reported residual activity of "CN(C)C/C=C/C(=O)Nc1cccc(C(=O)Nc2ccc(Nc3nccc(-c4cccnc4)n3)cc2)c1" is ____.
Output: 72

Task: Could you tell me which residual activity is on file for COc1cc(O)c2c(c1)[C@H]1OC1C[C@H](O)[C@H](O)C(=O)/C=C\C[C@H](C)OC2=O (stereo partly specified) ?
Output: 76

====

- Test system: RPS6KB1 (human), P23443 [T412E]
- Sequence (P23443 whole entry T412E, looked up): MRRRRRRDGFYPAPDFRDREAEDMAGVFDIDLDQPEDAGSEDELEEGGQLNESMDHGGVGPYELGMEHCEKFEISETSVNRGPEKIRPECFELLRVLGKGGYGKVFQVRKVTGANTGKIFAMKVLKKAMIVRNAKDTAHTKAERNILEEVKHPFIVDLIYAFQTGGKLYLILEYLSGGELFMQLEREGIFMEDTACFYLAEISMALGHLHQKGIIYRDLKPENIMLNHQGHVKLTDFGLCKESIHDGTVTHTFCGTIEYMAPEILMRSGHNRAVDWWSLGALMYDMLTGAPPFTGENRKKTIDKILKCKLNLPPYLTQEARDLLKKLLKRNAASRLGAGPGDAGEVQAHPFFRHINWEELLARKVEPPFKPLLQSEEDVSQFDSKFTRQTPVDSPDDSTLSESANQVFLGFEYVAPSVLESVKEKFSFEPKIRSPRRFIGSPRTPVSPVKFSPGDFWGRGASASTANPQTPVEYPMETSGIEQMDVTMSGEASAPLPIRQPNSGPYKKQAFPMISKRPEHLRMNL
- protocol_notes: radiometric filter-binding kinase assay
- measurement_parameters: compound 0.1 µM
parameter: residual activity (%)
# value in %; strip the unit string

See these solved cases before continuing.
structure_string	assayed_target	units_of_measure	residual activity
NC(=O)c1cc2c(-c3cccc(-c4ccccc4)c3)cnc(N)c2s1	RPS6KB1 (human), P23443 [T412E]	%	112
O=C(N[C@@H](COc1ccc2[nH]c(=O)[nH]c2c1)c1ccccc1)c1cccn(Cc2ccc(F)c(F)c2)c1=O	RPS6KB1 (human), P23443 [T412E]	%	103

Task: Find the recorded residual activity belonging to "O=C(NCCCNc1nc(Nc2cccc(CN3CCOCC3)c2)ncc1C1CC1)C1CCC1" and report it.
Output: 101

Task: Param item = "COc1ccc(-n2ncc3cnc(Nc4cc(OC)c(OC)c(OCCCN5CCN(C)CC5)c4)nc32)cc1" ; retrieve measured residual activity.
Output: 70

Task: Query: residual activity; subject: "NC(=O)Nc1ccc2c(c1)/C(=C/c1cc(-c3cccnc3)c[nH]1)C(=O)N2"
Output: 76

Task: Need residual activity, item "CCCCCc1ccc(/C=C/[C@H](O)[C@@H](CO)NC)cc1"
Output: 114

Task: What does the data say about its residual activity? Entry: "COc1cc(O)c2c(c1)/C=C/C[C@H](O)[C@H](O)C(=O)/C=C\C[C@H](C)OC2=O"
Output: 112

Task: Give its residual activity value. Item: "NC1(c2ccc(-c3nc4ccn5c(=O)[nH]nc5c4cc3-c3ccccc3)cc2)CCC1"
Output: 84

Task: Suppose we examine the molecule "CNc1nc(-c2ccc3c(N)n[nH]c3c2)cc(N2C[C@@H](C(=O)NC3CCCCC3)CC[C@H]2C)n1" ; what residual activity value has been reported?
Output: 106

Task: Please look up its residual activity: "O=C(O)c1ccc(-c2c[nH]c3ncc(-c4ccccc4)cc23)cc1C1CCCC1"
Output: 100
